# Measurement Target: Alpha-2A adrenergic receptor (Homo sapiens)
# Sequence (P08913 whole entry): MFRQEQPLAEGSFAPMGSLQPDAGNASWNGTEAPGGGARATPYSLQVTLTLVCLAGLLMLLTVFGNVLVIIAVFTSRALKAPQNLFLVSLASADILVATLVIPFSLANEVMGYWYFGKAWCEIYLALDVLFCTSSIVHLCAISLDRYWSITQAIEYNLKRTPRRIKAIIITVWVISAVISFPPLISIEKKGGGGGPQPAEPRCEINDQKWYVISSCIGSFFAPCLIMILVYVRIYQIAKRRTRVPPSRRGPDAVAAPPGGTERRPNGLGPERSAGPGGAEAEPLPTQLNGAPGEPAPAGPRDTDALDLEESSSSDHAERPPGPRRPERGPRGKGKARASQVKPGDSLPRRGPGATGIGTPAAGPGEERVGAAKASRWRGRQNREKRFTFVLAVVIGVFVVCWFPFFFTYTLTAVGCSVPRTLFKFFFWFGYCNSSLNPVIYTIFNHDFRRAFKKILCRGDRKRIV
# Experiment: Displacement of [3H]RX821002 from human alpha-2A adrenergic receptor […] in HEK293T cell membrane incubated for 2 hrs by scintillation counting analysis
# Type: cell membranes
Exercise: state measured pKi for each of the compounds provided.

# batch size: 2; output pKi per entry
1. CCCCCNC(=O)/N=C(\N)NCCCc1nnc(N)s1.O=C(O)C(F)(F)F.O=C(O)C(F)(F)F
2. CCCCCNC(=O)/N=C(\N)NCCCc1sc(N)nc1C

1: 5.31; 2: 6.05

# batch size: 2; output pKi per entry
1. N/C(=N\C(=O)NCc1ccccc1)NCCCc1nnc(N)s1
2. C[C@@H](NC(=O)/N=C(\N)NCCCc1ncn[nH]1)c1ccccc1

1: 5.9; 2: 6.07

---

Exercise: state measured Emax for each of the molecules provided.
# Measurement Target: Histamine H2 receptor (Cavia porcellus) (UniProt P47747)
# Sequence (P47747 whole entry): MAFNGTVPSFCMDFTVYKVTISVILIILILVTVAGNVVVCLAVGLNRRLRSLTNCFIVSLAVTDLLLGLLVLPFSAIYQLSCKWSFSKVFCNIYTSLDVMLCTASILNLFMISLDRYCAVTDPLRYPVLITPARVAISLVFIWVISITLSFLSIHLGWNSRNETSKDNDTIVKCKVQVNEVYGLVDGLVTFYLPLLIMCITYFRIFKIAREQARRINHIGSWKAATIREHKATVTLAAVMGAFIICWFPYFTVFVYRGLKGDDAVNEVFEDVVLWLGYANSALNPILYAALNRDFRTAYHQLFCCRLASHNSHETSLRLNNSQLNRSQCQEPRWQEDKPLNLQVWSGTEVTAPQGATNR
# Experiment: Agonist activity at histamine H2 receptor in spontaneous beating guinea pig right atrium assessed as increase in heart beat at 30 uM relative to histamine
# Type: functional, tissue-based
# Study Conditions: Right cardiac atrium

{"Molecule": "CCCCCCNC(=O)/N=C(\\N)NCCCc1nnc(N)s1", "Measurement Target": "Histamine H2 receptor (Cavia porcellus) (UniProt P47747)", "Emax": "106%"}
{"Molecule": "C[C@@H](NC(=O)/N=C(\\N)NCCCc1ncn[nH]1)c1ccccc1", "Measurement Target": "Histamine H2 receptor (Cavia porcellus) (UniProt P47747)", "Emax": "115%"}
{"Molecule": "C[C@@H](NC(=O)/N=C(\\N)NCCCc1nnc(N)s1)c1ccccc1", "Measurement Target": "Histamine H2 receptor (Cavia porcellus) (UniProt P47747)", "Emax": "98%"}

Let us move to another entry and its Emax.
Answer with reported Emax of CC(NC(=O)/N=C(\N)NCCCc1nnc(N)s1)c1cccc(F)c1 (centres undefined)
110%

---

# Measurement Target: 5-hydroxytryptamine receptor 1A (Homo sapiens)
# Sequence (P08908 whole entry): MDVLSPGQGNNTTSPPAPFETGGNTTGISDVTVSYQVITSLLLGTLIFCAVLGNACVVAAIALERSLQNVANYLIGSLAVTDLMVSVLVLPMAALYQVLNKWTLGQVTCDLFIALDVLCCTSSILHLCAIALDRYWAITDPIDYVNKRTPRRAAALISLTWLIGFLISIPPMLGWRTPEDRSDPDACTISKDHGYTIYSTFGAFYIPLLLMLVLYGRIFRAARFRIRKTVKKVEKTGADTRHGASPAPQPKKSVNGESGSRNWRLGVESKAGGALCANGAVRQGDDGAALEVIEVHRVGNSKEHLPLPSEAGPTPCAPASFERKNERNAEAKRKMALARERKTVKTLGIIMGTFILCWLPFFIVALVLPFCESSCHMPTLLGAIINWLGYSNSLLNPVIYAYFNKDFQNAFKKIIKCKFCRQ
# Experiment: Displacement of […] from human 5HT1A stably expressed in HEK293T cell membrane incubated for 2 hrs by scintillation counting analysis
# Format: cell membranes
Quantity Measured: pKi

Example entries and their recorded answers appear below.
{"Chemical String": "C[C@@H](NC(=O)/N=C(\\N)NCCCc1ncn[nH]1)c1ccccc1", "pKi": 4.29}
{"Chemical String": "N/C(=N\\C(=O)NCc1ccccc1)NCCCc1nnc(N)s1", "pKi": 4.56}
{"Chemical String": "CCCCCNC(=O)/N=C(\\N)NCCCc1nnc(N)s1.O=C(O)C(F)(F)F.O=C(O)C(F)(F)F", "pKi": 4.49}

Answer with reported pKi of CCCCCNC(=O)/N=C(\N)NCCCc1sc(N)nc1C
5.18

The values you see were collected from ChEMBL document CHEMBL5149991.
